system: MDA-MB-231 cells; assay: HCA of apoptosis and ERK phosphorylation (multiparametric: nuclear condensation, caspase-3 cleavage, ERK phosphorylation); type: cell-based, human; conditions: Homo sapiens, 24 hours, read-out: IC50 Nuclear condensation
measureName: pIC50
The read-out pIC50 is expressed as -log10 of concentration in moles per litre.

[
  {
    "compound": "O=C1/C(=C/c2ccccc2)C(NC2CCCCC2)c2ccccc21 (centres unmarked) [BCI]",
    "pIC50": 4.89
  }
]

# next compound below
Reported pIC50 for O=C1/C(=C/c2ccccc2)C(NC2CCCCC2)c2cc(Br)ccc21 (centres unmarked) [BCI-215] : what is it?
4.89
